Data origin: PubChem BioAssay (NCI)

# System: SNB-19 CNS
# EXPERIMENTAL DETAILS: NCI-60 one-dose screen, 48 h (100 = growth as untreated, 0 = no growth, -100 = all killed)
# CONDITIONS: 10 µM
Compounds without any hit were thinned out: in the full panel of roughly 83,000, 20% have a hit. Active and inactive are the calls of the source. The calls were made as follows: active = growth percent below 10; inactive = the rest.
READOUT NAME: growth

Worked cases, growth given:
{"columns": ["COMPOUND", "growth"],
 "data": [
  ["CC(=O)c1ccc(C(C)(C)C)cc1", "95.6% (inactive)"],
  ["N#CCc1ccc([N+](=O)[O-])cc1", "96.6% (inactive)"],
  ["Cc1c(C(=O)O)c(=O)n(-c2ccccc2)n1C", "111% (inactive)"],
  ["CN(c1ccccc1)c1ncnc2c1ncn2C", "102% (inactive)"],
  ["C=CC[N+](C)(C)C", "98.7% (inactive)"],
  ["COc1ncnc2c1cnn2C", "110% (inactive)"]
]}

Value sought for every listed compound: growth.
1. O=C(NC1CCCCC1)OCc1c(COC(=O)NC2CCCCC2)c(-c2ccc(Cl)c(Cl)c2)n2c1CCC2
2. CCCCN(CCCC)CCCO
3. CC1CCC2C(C)(C)C3CC12CC1OC13C (stereo not drawn)
4. CN(C)c1ccc(C(c2ccc(O)cc2)c2ccc(N(C)C)cc2)cc1
5. C=CCOC(=O)C(=O)OCC=C
6. CC1(C)Nc2cccc3c(N=Nc4ccc(N=Nc5ccccc5)c5ccccc45)ccc(c23)N1
7. CN(C)CCN(Cc1ccccc1)c1ccccc1

Reply:
["44.5% (inactive)", "112% (inactive)", "102% (inactive)", "97.2% (inactive)", "94.7% (inactive)", "124% (inactive)", "105% (inactive)"]

###

# Tested on: M14 melanoma
# EXPERIMENTAL DETAILS: NCI-60 one-dose screen, 48 h (100 = growth as untreated, 0 = no growth, -100 = all killed)
# CONDITIONS: 10 µM
Compounds without any hit were thinned out: in the full panel of roughly 83,000, 20% have a hit.
Hi there, I'd appreciate the recorded growth for every entry that follows.
One number for each entry, in %.

{"columns": ["MOLECULE", "EXPERIMENTAL SYSTEM", "growth / %"],
 "data": [
  ["CC(C)NC(=O)OCc1c(COC(=O)NC(C)C)c(-c2ccc(Cl)c(Cl)c2)n2c1SCC2", "M14 melanoma", 50.3],
  ["CC(C)=NNc1ccc([N+](=O)[O-])cc1[N+](=O)[O-]", "M14 melanoma", 74.3],
  ["O=C(/C=C/C(=O)c1ccccc1)c1ccccc1", "M14 melanoma", 111],
  ["N=c1c(C(=O)OCc2ccccc2)ncc(CCl)n1O", "M14 melanoma", 94.1],
  ["S=c1[nH]ccn1-c1ccccc1Cl", "M14 melanoma", 108],
  ["COc1cccc(Sc2ccc([N+](=O)[O-])c3no[n+]([O-])c23)c1", "M14 melanoma", 72.1],
  ["COC(=O)Nc1cccc(Cl)c1OC", "M14 melanoma", 110],
  ["[O-][N+](=Nc1cccc(Cl)c1)c1cccc(Cl)c1", "M14 melanoma", 96.4],
  ["O=C(O)C(Cc1ccccc1)C(=O)O", "M14 melanoma", 104],
  ["O=S(=O)(O)C(Nc1ccccc1)c1ccccc1 (stereo unspecified)", "M14 melanoma", 98.7]
]}

Value sought for every listed molecule: growth.
1. Cc1cc(=O)[nH]c(NN=C2CCCC2)n1
2. CC1SC(N)=NC1=O (stereo unspecified)
3. Cc1cc(C(O)(c2ccc(Nc3ccccc3)cc2)c2ccc(Nc3ccc(S(=O)(=O)O)cc3)cc2)ccc1N (stereo unspecified)
4. CC(=O)Nc1ccc(NC(C)=O)c2c1C(=O)c1ccccc1C2=O
5. COC1=CC(=O)c2nc(Cl)ccc2C1=O
6. C[C@]12CC[C@@H]3c4ccc(OCC(=O)O)cc4CC[C@H]3[C@@H]1CCC2=O
7. NC(C(=O)O)c1ccc([N+](=O)[O-])cc1 (stereo unspecified)

Reply:
1: 112; 2: 103; 3: -42.6; 4: 101; 5: -5.38; 6: 97.2; 7: 99

###

# Test system: MALME-3M melanoma
# EXPERIMENTAL DETAILS: NCI-60 one-dose screen, 48 h (100 = growth as untreated, 0 = no growth, -100 = all killed)
# CONDITIONS: 10 µM
This is part of a sample that, as a whole, favours compounds with a hit. Of some 83,000 tested, about 20% had one in any assay.
Hi there, I'd appreciate the recorded growth for every entry that follows.
Numbers only, in %.

Worked cases, growth given:
{"columns": ["COMPOUND", "EXPERIMENTAL SYSTEM", "RECORDED NUMBER"],
 "data": [
  ["O=c1cc(-c2ccccc2)oc2c1ccc1ccccc12", "MALME-3M melanoma", 146],
  ["Cc1cc(C)c(CC(=O)O)c(C)c1", "MALME-3M melanoma", 97.8],
  ["CC1NC(=O)NC1CCCCCC(=O)O (centres undefined)", "MALME-3M melanoma", 106],
  ["CCC(C#N)(CC)c1ccccc1", "MALME-3M melanoma", 121],
  ["COC(=O)c1cc(-c2ccc(Cl)c(Cl)c2)[nH]c(=O)c1C#N", "MALME-3M melanoma", 89.1],
  ["COc1ccc(C(C)C=O)cc1 (centres undefined)", "MALME-3M melanoma", 133]
]}

Value sought for every listed compound: growth.
1. O=c1[nH]cc(Cl)cc1O
2. Cc1ccccc1C1N=C2Oc3ccccc3C=C2C(=O)N1 (centres undefined)
3. CC(=O)OCCO
4. C/C(=N/NC(N)=O)c1ccco1
5. COc1ccc(C2(O)CCCCC2)cc1

Reply:
[91.2, 51.8, 93.5, 93.4, 105]

Value sought for every listed compound: growth.
1. COc1cc(OC)c2ccc(=O)oc2c1
2. CC(C)(C)n1nc(C2CC2)c(Br)c1NC(=O)c1ccccc1F
3. O=[N+]([O-])c1ccccc1S(=O)c1ccccc1[N+](=O)[O-]

Reply:
1. 136
2. 107
3. 90.4

###

# Tested on: 786-0 renal
# EXPERIMENTAL DETAILS: NCI-60 one-dose screen, 48 h (100 = growth as untreated, 0 = no growth, -100 = all killed)
# CONDITIONS: 10 µM
The panel holds about 83,000 compounds, 20% with a hit somewhere; the sample as a whole holds those more often.
Hi there, I'd appreciate the recorded growth for every entry that follows.
Answers are plain numbers, in %.

{"columns": ["MOLECULE", "EXPERIMENTAL SYSTEM", "UNITS OF MEASURE", "RECORDED NUMBER"],
 "data": [
  ["CCCCCC(C)(CC(=O)O)CC(=O)O", "786-0 renal", "%", 107],
  ["Nc1nc(N)c(N=Nc2ccc(C(=O)O)cc2)c(N)n1", "786-0 renal", "%", 107],
  ["CCOC(=O)c1cc2cccc(OC)c2oc1=O", "786-0 renal", "%", 95.5],
  ["Cc1ccc(C(=O)NC2c3ccccc3Oc3ccccc32)cc1", "786-0 renal", "%", 25.7]
]}

Value sought for every listed molecule: growth.
1. COc1cccc(O)c1O
2. Oc1ccc(N=Nc2ccc(Br)cc2)c(O)c1
3. CC1(O)OC(COc2ccc(Cl)cc2)COC1O (stereo not drawn)

Reply:
[88.1, 15.6, 105]

Value sought for every listed molecule: growth.
1. CC(=O)OCC(=O)[C@@]1(O)CC[C@H]2[C@@H]3CC[C@@H]4C[C@H](O)CC[C@]4(C)[C@H]3C(=O)C[C@@]21C
2. NCCC(=O)c1ccc(Cl)cc1

Reply:
1. 105
2. 105

Value sought for every listed molecule: growth.
1. CN(C)CCN(Cc1ccccc1)c1ccccc1
2. C[C@@H](c1ccccc1)[C@@H](C(=O)O)c1ccccc1
3. Cc1cccc(CO)c1
4. CN(C)c1ccc(S(=O)(=O)O)cc1

Reply:
105
99.5
104
110

###

# System: NCI-H23 lung
# EXPERIMENTAL DETAILS: NCI-60 one-dose screen, 48 h (100 = growth as untreated, 0 = no growth, -100 = all killed)
# CONDITIONS: 10 µM
# Description: Growth inhibition of the NCI-H23 human Non-Small Cell Lung tumor cell line is measured as a screen for anti-cancer activity. Cells are grown in 96 well plates and exposed to the test compound for 48 hours. Compounds are tested at a single concentration, which is 10^-5 M for most compounds. The reported endpoint is percent growth (GI% or GIPRCNT), where numbers from 0 - 100% represent growth inhibition, and numbers from -100% - 0 represent cell death. […]
Compounds without any hit were thinned out: in the full panel of roughly 83,000, 20% have a hit.
Rule for this label: class 1 means growth is less than 90%; class 0 means growth is at least 90%.

Check out these entries, answers already filled in.
{"columns": ["MOLECULE", "GROUP LABEL"],
 "data": [
  ["CN(C)CCN(C)CC(C)(C)C(=O)/C=C/c1ccc(Cl)cc1", "class 1"],
  ["O=[N+]([O-])c1ccccc1S(=O)c1ccccc1[N+](=O)[O-]", "class 0"],
  ["Cc1cc(N)ccc1-c1ccc(N)cc1C", "class 0"],
  ["CCCCCCCCCCCCCC(=O)Oc1ccc[nH]c1=O", "class 0"],
  ["COC(=O)C(C)Oc1ccc(OC#N)cc1 (stereo not drawn)", "class 0"]
]}

Ask: Identify whether the molecule CCS(=O)(=O)CCCl records growth below 90%.
Reply: class 0

Ask: Identify whether the molecule CCN(CC)c1ccc2nc3ccc(=[N+](CC)CC)cc-3oc2c1 records growth below 90%.
Reply: class 1

Ask: Identify whether the molecule CCCNc1ccc(C2=NCCCN2)cc1 records growth below 90%.
Reply: class 0

Ask: Identify whether the molecule CS(=O)CC1=NC(=N)N=C1CS(C)=O (stereo not drawn) records growth below 90%.
Reply: class 0

Ask: Identify whether the molecule O=C1OC(=O)C2C1C1(Cl)C(Cl)=C(Cl)C2(Cl)C2C(=O)OC(=O)C21 (stereo not drawn) records growth below 90%.
Reply: class 0

Ask: Identify whether the molecule CC(=O)Nc1cccc(NC(C)=O)n1 records growth below 90%.
Reply: class 0

Ask: Identify whether the molecule C=CCc1cc(C(C)=O)cc(OC)c1O records growth below 90%.
Reply: class 0

Ask: Identify whether the molecule CCOC(=O)C1OC1c1ccccc1 (stereo not drawn) records growth below 90%.
Reply: class 0

Ask: Identify whether the molecule O=C(N/N=C/c1ccccc1O)Nc1nn[nH]n1 records growth below 90%.
Reply: class 0

Ask: Identify whether the molecule CCOC(=O)C1=C(C)NC(=O)NC1c1cccs1 (stereo not drawn) records growth below 90%.
Reply: class 0

Ask: Identify whether the molecule CC1CCCC(CC(N)=O)CC1 (stereo not drawn) records growth below 90%.
Reply: class 0

Ask: Identify whether the molecule Cc1ncc(C#N)c(N)n1 records growth below 90%.
Reply: class 0

Ask: Identify whether the molecule CC(=Nc1ccccc1)C1=C(O)C(Cc2cccc(F)c2)NC1=O (stereo not drawn) records growth below 90%.
Reply: class 1

Ask: Identify whether the molecule O=[N+]([O-])c1ccccc1N=Nc1ccc(O)cc1O records growth below 90%.
Reply: class 0

Ask: Identify whether the molecule CSc1[nH]c(=O)ncc1F records growth below 90%.
Reply: class 0

Ask: Identify whether the molecule C=C[Si](OC(C)=O)(OC(C)=O)OC(C)=O records growth below 90%.
Reply: class 0

Ask: Identify whether the molecule Oc1ccc(Cc2ccccc2)c2cccnc12 records growth below 90%.
Reply: class 1

Ask: Identify whether the molecule CCCCC1C(=O)N(c2ccccc2)N(c2ccccc2)C1=O records growth below 90%.
Reply: class 0

Ask: Identify whether the molecule Cc1cc(=O)n(-c2ccc(F)cc2)[nH]1 records growth below 90%.
Reply: class 0

Ask: Identify whether the molecule CC1=NN(c2ccccc2)C(=O)/C1=C\N1CC(=O)NC1=S records growth below 90%.
Reply: class 0

Ask: Identify whether the molecule COC(=O)c1ccccc1Br records growth below 90%.
Reply: class 0

Ask: Identify whether the molecule CCCCNC1(C#N)CCN(Cc2ccccc2)CC1 records growth below 90%.
Reply: class 1
